FYI, the data here is from PubChem BioAssay (NCI).

Tested on: HCC-2998 colon
Experiment: NCI-60 one-dose screen, 48 h (100 = growth as untreated, 0 = no growth, -100 = all killed)
Conditions: 10 µM unless noted
Procedure: Growth inhibition of the HCC-2998 human tumor cell line is measured as a screen for anti-cancer activity. Cells are grown in 96 well plates and exposed to the test compound for 48 hours. Compounds are tested at a single concentration, which is 10^-5 M for most compounds. The reported endpoint is percent growth (GI% or GIPRCNT), where numbers from 0 - 100% represent growth inhibition, and numbers from -100% - 0 represent cell death. For example, a value of 40 represents 60% growth inhibition. […]
This is part of a sample that, as a whole, favours compounds with a hit. Of some 83,000 tested, about 20% had one in any assay.
Property: growth; scope: individual compounds
Give your result in % as a bare value.

Before answering, review these 5 worked examples.
# COMPOUND, UNITS TEXT, growth
measured = [
    ("O=C1Nc2cc(-c3cccc([N+](=O)[O-])c3)ccc2/C1=C/c1ccc[nH]1", "%", 61),
    ("CCCCCN1C=C/C(=C\\C(=O)n2ccc3ccccc32)c2ccccc21", "%", 107),
    ("CCCCCCNC(=O)Oc1ccc(/C(=C(\\C)c2ccccc2)c2ccc(OCCCN(C)C)cc2)cc1", "%", 86.7),
    ("COc1cc(/C=C\\c2cc(/C=C\\c3ccc(O)c(OC)c3)n(C(=O)COc3ccccc3)n2)ccc1O", "%", 34.8),
    ("COc1ccccc1NC(=O)C1CC(c2ccc(F)cc2)=NO1 (centres undefined)", "%", 90.1),
]

Please examine the following record next.
**Query** Can you look up growth on HCC-2998 colon for Cn1c2ccccc2c2c3c(c4c5ccccc5n(C)c4c21)C(=O)OC3 ?
**Result** 99.7
